Here we list compounds with their recorded pIC50 when tested on PIK3CA (human) (UniProt P42336).
Sequence (P42336 whole entry, looked up): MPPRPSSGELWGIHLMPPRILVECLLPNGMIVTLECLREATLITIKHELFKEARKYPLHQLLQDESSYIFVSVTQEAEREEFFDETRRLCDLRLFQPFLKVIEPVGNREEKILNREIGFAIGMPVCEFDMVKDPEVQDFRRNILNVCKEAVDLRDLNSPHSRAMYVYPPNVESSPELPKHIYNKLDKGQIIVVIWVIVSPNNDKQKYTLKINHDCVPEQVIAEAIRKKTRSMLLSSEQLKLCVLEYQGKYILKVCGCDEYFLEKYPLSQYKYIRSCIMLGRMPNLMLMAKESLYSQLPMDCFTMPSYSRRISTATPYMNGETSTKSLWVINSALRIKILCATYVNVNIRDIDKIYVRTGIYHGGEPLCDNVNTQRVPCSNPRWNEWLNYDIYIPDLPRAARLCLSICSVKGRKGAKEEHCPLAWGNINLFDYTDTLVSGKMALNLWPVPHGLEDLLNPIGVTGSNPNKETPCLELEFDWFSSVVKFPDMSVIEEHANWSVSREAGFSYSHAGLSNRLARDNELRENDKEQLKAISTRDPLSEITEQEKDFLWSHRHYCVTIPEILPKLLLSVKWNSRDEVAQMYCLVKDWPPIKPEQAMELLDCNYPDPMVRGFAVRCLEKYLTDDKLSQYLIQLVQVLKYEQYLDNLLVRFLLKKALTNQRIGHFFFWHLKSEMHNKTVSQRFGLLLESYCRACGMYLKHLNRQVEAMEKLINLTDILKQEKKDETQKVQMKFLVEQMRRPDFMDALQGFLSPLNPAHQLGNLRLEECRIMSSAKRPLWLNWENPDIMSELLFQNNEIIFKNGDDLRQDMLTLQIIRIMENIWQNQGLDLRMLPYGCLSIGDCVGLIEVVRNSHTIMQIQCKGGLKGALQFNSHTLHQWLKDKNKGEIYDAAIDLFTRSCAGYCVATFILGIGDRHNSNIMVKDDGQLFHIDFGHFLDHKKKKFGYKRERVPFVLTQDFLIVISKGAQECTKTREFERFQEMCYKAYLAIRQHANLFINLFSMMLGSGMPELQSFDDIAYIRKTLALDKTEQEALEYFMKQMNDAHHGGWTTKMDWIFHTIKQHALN
pIC50: −log10 of the molar value.

stdin: Please give the measured pIC50 for this compound: CCNC(=S)Nc1ccc2ncc(Nc3cc(OC)c(OC)c(OC)c3)nc2n1
stdout: > 6.00

stdin: # get_value(readout='pIC50', item= CCNC(=O)Nc1cnc2ccc(-c3ccc(O)c(OC)c3)nc2n1 )
stdout: > 6.30

stdin: Query (compound): O=C(Nc1cnc2ccc(-c3cc(Cl)c(O)c(Cl)c3)nc2n1)NC1CCCC1 ; field requested: pIC50
stdout: > 6.00

stdin: Looking for the measured pIC50 of COc1cc(-c2ccc3ncc(NC(=O)NCCCl)nc3n2)ccc1O , can you help?
stdout: > 6.00

stdin: Fill in: pIC50 of COc1cc(-c2ccc3ncc(NC(=O)NC4CCCC4)nc3n2)ccc1O is ___
stdout: > 6.00

stdin: Fill blank: measured pIC50 of the compound COc1cc(-c2ccc3ncc(NC(=O)Nc4ccncc4)nc3n2)ccc1O is ____.
stdout: > 6.00

stdin: Requested field: pIC50. Item: CNC(=S)Nc1cnc2ccc(-c3ccc(O)c(OC)c3)nc2n1
stdout: > 6.00

stdin: # get_value(readout='pIC50', item= CCNC(=O)Nc1ccc2ncc(Nc3cccc(OC(F)F)c3)nc2n1 )
stdout: > 5.30
